# Study Target: MDM2 (Homo sapiens)
# Protocol Summary: MDM2 binding screen: displacement of fluorescent p53 peptide probe FP53 (fluorescence polarization)
# Experimental Context: Acid 25; replicate; crude macrocycle reactions
Measurement Kind: fraction fluorescent probe displaced, Replicate

> print(dat)
                                   molecule  result
1  O=C1CCSSCCNC(=O)C(Cc2ccccc2)NC(=O)C2CC(NC(=O)c3ccc(Cl)cc3)CN2C(=O)c2cccc(c2)CN1 (stereo not drawn)    0.05
2  O=C1CCSSCCNC(=O)[C@@H]2C[C@H](NC(=O)c3ccc(Cl)cc3)CN2C(=O)[C@H](Cc2ccccc2)NC(=O)c2cccc(c2)CN1    0.10
3  O=C1NC(Cc2ccccc2)C(=O)N2CCCC2C(=O)NCCSSCCC(=O)N2CCN(C(=O)c3ccc(Cl)cc3)CC12 (stereo not drawn)    0.07

----------
# Study Target: MDM2 (Homo sapiens)
# Protocol Summary: MDM2 binding screen: displacement of fluorescent p53 peptide probe FP53 (fluorescence polarization)
# Experimental Context: Acid 25; replicate; crude macrocycle reactions
Numbered stars: 1 amine (or outer) side, 2 acyl side, 3 side chain; on linkers, the order of the positions; unused ones are H or OH. Bridge positions count the residues as written; N and C are the ends. Square brackets hold non-standard residues; d marks the D form. Peptide text beside a SMILES is read from it. ξ: configuration not given here. ξPro(4ξ-NHCOC6H4-4-Cl) = O=C(NC1CNC(C(=O)O)C1)c1ccc(Cl)cc1; Cysteamide = C(CS[*:3])N[*:1]; Mpa = O=C(O)CCS
Let's look at some molecules and their measured fraction fluorescent probe displaced, Replicate.
Measurement Kind: fraction fluorescent probe displaced, Replicate

Molecule	Readout Number
O=C1CCSSCCNC(=O)C(Cc2ccccc2)NC(=O)C2CC(NC(=O)c3ccc(Cl)cc3)CN2C(=O)CCN1 (centres unmarked) [X B2 D5 F Acid 25]	0.05
O=C(NC1CC2C(=O)N3CCCC3C(=O)NC(Cc3ccccc3)C(=O)NCCSSCCC(=O)N2C1)c1ccc(Cl)cc1 (centres unmarked) [X D5 B1 F Acid 25] ([Mpa][ξPro(4ξ-NHCOC6H4-4-Cl)]PF-Cysteamide; disulfide 1-C; configuration not given here)	0.12
O=C1CCSSCCNC(=O)c2cccc(c2)CNC(=O)C2CN(C(=O)c3ccc(Cl)cc3)CCN2C(=O)[C@H](Cc2c[nH]c3ccccc23)N1 (some centres unmarked) [X W D7 B5 Acid 25]	0.10
O=C1CCSSCCNC(=O)[C@H](CNC(=O)c2ccc(Cl)cc2)NC(=O)[C@H](Cc2ccccc2)NC(=O)CCN1 [X B2 F D3 Acid 25]	-0.03
O=C1CCSSCCNC(=O)[C@H](Cc2c[nH]c3ccccc23)NC(=O)c2cccc(c2)CNC(=O)[C@H](CNC(=O)c2ccc(Cl)cc2)N1 [X D3 B5 W Acid 25]	0.10

----------
# Study Target: MDM2 (Homo sapiens)
# Protocol Summary: MDM2 binding screen: displacement of fluorescent p53 peptide probe FP53 (fluorescence polarization)
# Experimental Context: crude reaction of macrocycle scaffold with Acid 14; (initial screen)
Measurement Kind: fraction fluorescent probe displaced

> print(dat)
                                   compound  readout.number
1  O=C1CCSSCCNC(=O)[C@H](Cc2ccccc2)NC(=O)[C@H]2CCCN(C2)C(=O)C2(CCN(C(=O)c3ccc(Cl)s3)CC2)N1        -0.00483
2  O=C1NCCSSCCC(=O)N2CCN(C(=O)c3ccc(Cl)s3)CC2C(=O)NC(Cc2ccccc2)C(=O)N2CCCC1C2 (stereo not shown)          0.0241
3  O=C1NC2(CCN(C(=O)c3ccc(Cl)s3)CC2)C(=O)N[C@@H](Cc2ccccc2)C(=O)NCCSSCCC(=O)N2CCC[C@H]1C2            0.25
4  O=C1NC(Cc2ccccc2)C(=O)NCCSSCCC(=O)N2CCN(C(=O)c3ccc(Cl)s3)CC2C(=O)N2CCCC1C2 (stereo not shown)         -0.0337

----------
# Study Target: thrombin (Homo sapiens)
# Construct: consists of two polypeptide chains of 36 (light chain) and 259 amino acid
# Protocol Summary: Thrombin inhibition screen of crude macrocycle reactions (residual thrombin activity, fluorogenic substrate Z-Gly-Gly-Arg-AMC)
# Assay type: biochemical
# Experimental Context: 10 µM macrocycle concentration; crude reactions, Library 1a-l; scaffold AA1-AA2-AA3 combined with 1-16 or '-'
Let's look at some compounds and their measured percent residual thrombin activity.
Measurement Kind: percent residual thrombin activity

> print(dat)
                                    compound    result
 1  CC(C)CC(=O)NCCCC[C@@H]1NC(=O)C2(CC2)CNC(=O)CCSSCCNC(=O)[C@H](CCC(N)=O)NC1=O [B6-D1-Q/8]  101.194%
 2  CC[C@H](C)[C@@H]1NC(=O)[C@H](CCCCNC(=O)c2ccco2)NC(=O)CCSSCCNC(=O)C2(CC2)CNC1=O [D1-I-B6/16]  103.501%
 3  CC(C)CC(=O)NCCC[C@@H]1NC(=O)CCSSCCNC(=O)[C@H](Cc2ccc(O)cc2)NC(=O)c2cccc(c2)CNC1=O [D2-B5-Y/8]  100.592%
 4  O=C(NCCCC[C@@H]1NC(=O)[C@@H](Cc2c[nH]c3ccccc23)NC(=O)[C@H]2CCCN(C2)C(=O)CCSSCCNC1=O)c1c[nH]c(=O)cn1 [B4-w-D1/9]  111.618%
 5  CC[C@H](C)[C@@H]1NC(=O)CCSSCCNC(=O)[C@H](CCCCNC(=O)c2c[nH]c(=O)[nH]c2=O)NC(=O)c2cccc(c2)CNC1=O [I-B5-D1/11]  106.327%
 6  O=C(COc1ccccc1)NCCC[C@@H]1NC(=O)CCSSCCNC(=O)[C@H](Cc2cnc[nH]2)NC(=O)c2cccc(c2)CNC1=O [D2-B5-H/13]  105.187%
 7  CC(C)C[C@@H]1NC(=O)CCSSCCNC(=O)[C@H](CCCCN)NC(=O)C2(CC2)CNC1=O [L-B6-D1/-]  103.319%
 8  O=C1CCSSCCNC(=O)[C@H](CCCCNC(=O)c2ccccc2)NC(=O)[C@H](Cc2ccc(O)cc2)NC(=O)C2(CC2)CN1 [B6-Y-D1/1]  104.596%
 9  O=C1CCNC(=O)[C@H](CO)NC(=O)[C@H](CCCNC(=O)Cc2c[nH]c3ccccc23)NC(=O)CCSSCCN1 [D2-S-B2/12]  110.146%
10  Cc1nnsc1C(=O)NCCCC[C@@H]1NC(=O)[C@H](Cc2ccc(O)cc2)NC(=O)CCSSCCNC(=O)[C@H]2CCCN(C2)C1=O [Y-D1-B4/15]  104.272%
11  O=C1CCNC(=O)[C@H](Cc2c[nH]cn2)NC(=O)CCSSCCNC(=O)[C@H](CCCNC(=O)c2ccco2)N1 [H-B2-D2/16]   110.75%
12  NC(=O)CC[C@@H]1NC(=O)c2ccc(cc2)CNC(=O)[C@H](CCCNC(=O)c2c[nH]c(=O)[nH]c2=O)NC(=O)CCSSCCNC1=O [D2-B3-Q/11]  114.755%
13  O=C1CCNC(=O)[C@H](Cc2c[nH]cn2)NC(=O)CCSSCCNC(=O)[C@H](CCCNC(=O)c2c[nH]c(=O)[nH]c2=O)N1 [H-B2-D2/11]  112.021%

----------
Let's look at some compounds and their measured fraction of fluorescent probe displaced.
# Study Target: MDM2 (Homo sapiens, UniProt Q00987)
# Sequence (Q00987 whole entry): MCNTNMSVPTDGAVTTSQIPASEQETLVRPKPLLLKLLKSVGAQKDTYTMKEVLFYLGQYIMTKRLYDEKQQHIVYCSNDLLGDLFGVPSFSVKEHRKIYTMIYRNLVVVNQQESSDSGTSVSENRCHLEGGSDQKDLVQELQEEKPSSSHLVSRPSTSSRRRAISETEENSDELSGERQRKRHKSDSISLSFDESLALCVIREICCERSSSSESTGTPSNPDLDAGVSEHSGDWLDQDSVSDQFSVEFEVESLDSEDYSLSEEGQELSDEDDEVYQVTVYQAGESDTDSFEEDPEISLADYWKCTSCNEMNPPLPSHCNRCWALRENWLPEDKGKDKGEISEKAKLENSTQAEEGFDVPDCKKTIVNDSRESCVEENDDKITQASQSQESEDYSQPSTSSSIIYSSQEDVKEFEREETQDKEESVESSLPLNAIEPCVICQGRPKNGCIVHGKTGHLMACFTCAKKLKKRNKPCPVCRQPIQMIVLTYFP
# Protocol Summary: MDM2 binding screen of Libraries 3 and 4: displacement of fluorescent probe F-M8 at 750 nM macrocycle
# Experimental Context: Panel b, Library 3: 63 scaffolds combinatorially acylated with 15 carboxylic acids at 30 picomole scale; displacement of fluorescent peptide probe; macrocycle 750 nM
Measurement Kind: fraction of fluorescent probe displaced

> print(dat)
                                   compound  readout.number
1                   O=C(O)/C=C/c1ccc(Cl)cc1           0.015
2  Cn1cc(C[C@@H]2NC(=O)CN(CCNC(=O)c3ccc4ccccc4c3)C(=O)[C@H]3CCCN(C3)C(=O)CCSSCCNC2=O)c2ccccc21           0.011
3                       O=C(O)/C=C/c1ccncc1         0.00455
4  CC(Oc1cccc(Cl)c1)C(=O)NC[C@@H]1NC(=O)[C@H]2CCCN(C2)C(=O)CCSSCCNC(=O)[C@H](Cc2cccc3ccccc23)NC1=O (stereo partly shown)          -0.019

----------
# Study Target: thrombin (Homo sapiens)
# Construct: consists of two polypeptide chains of 36 (light chain) and 259 amino acid
# Protocol Summary: Thrombin inhibition screen of crude macrocycle reactions (residual thrombin activity, fluorogenic substrate Z-Gly-Gly-Arg-AMC)
# Format: biochemical
# Experimental Context: 10 µM macrocycle concentration; crude reactions, Library 1a-l; scaffold AA1-AA2-AA3 combined with 1-16 or '-'
Numbered stars: 1 amine (or outer) side, 2 acyl side, 3 side chain; on linkers, the order of the positions; unused ones are H or OH. Bridge positions count the residues as written; N and C are the ends. Square brackets hold non-standard residues; d marks the D form. Peptide text beside a SMILES is read from it. * marks the point of attachment. Cysteamide = C(CS[*:3])N[*:1]; 2Furoyl = O=C(c1ccco1)*; Mpa = O=C(O)CCS
Let's look at some compounds and their measured percent residual thrombin activity.

Compound	Study Target	Endpoint Unit	percent residual thrombin activity
O=C1CCSSCCNC(=O)[C@@H]2CCCN2C(=O)[C@H](CCCCNC(=O)c2ccco2)NC(=O)[C@@H](Cc2ccc(O)cc2)N1 [y-D1-B1/16] ([Mpa][dY]K(2Furoyl)P-Cysteamide; disulfide 1-C)	thrombin (Homo sapiens)	%	104.272
CC[C@H](C)[C@@H]1NC(=O)[C@H](CCCNC(=O)c2cnccn2)NC(=O)c2cccc(c2)CNC(=O)CCSSCCNC1=O [B5-D2-I/2]	thrombin (Homo sapiens)	%	109.077
CC(C)C[C@@H]1NC(=O)[C@H](CCCNC(=O)c2c[nH]c(=O)cn2)NC(=O)C2(CC2)CNC(=O)CCSSCCNC1=O [B6-D2-L/9]	thrombin (Homo sapiens)	%	109.823
Cc1nnsc1C(=O)NCCC[C@@H]1NC(=O)c2ccc(cc2)CNC(=O)[C@H](CO)NC(=O)CCSSCCNC1=O [S-B3-D2/15]	thrombin (Homo sapiens)	%	116.562
